system: Sialate O-acetylesterase (Homo sapiens)
method summary: blockers of sialate O-acetylesterase activity-probe labeling – biochemical, fluorescence polarization, FP-Rh probe, 1536-well HTS, primary screen (AID 1053197);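 also: 0% = plate median of compound wells and 100% = probe without SIAE protein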
run parameters: SIAE FP-Rh probe binding, at 9.66 µM
The campaign covered roughly 370,000 compounds. About 2,600 (0.7%) were called active.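 The calls were made as follows: active = inhibition above a cutoff: mean of compounds within the control limits plus 3 SD of those (cut at about 17% in these data); inactive = the rest.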 What follows is part of a selection rich in actives, with near analogues and random picks from the rest.
Labels: YES for active, NO for inactive

> print(dat)
                                test.smiles  answer.label
1  Cc1ccc(-n2c(SCC(=O)Nc3ccc(S(=O)(=O)Nc4nccs4)cc3)nnc2-c2cccnc2)cc1            NO
2  CNC(=S)N/N=C/c1cn(Cc2ccc(C)cc2)c2ccccc12           YES
3       Nc1ccc2nc3c(=O)[nH]c(=S)[nH]c3nc2c1           YES
4  CCCCC(=O)N[C@@H]1CC[C@@]23CCCN2C(=O)CCC[C@H]3[C@H]1C            NO
5    S=C(Nc1ccc(Br)cc1)NC1CCN(Cc2ccccc2)CC1           YES
6  Cc1ccccc1NC(=O)COC(=O)c1ccc(Sc2ncn[nH]2)c([N+](=O)[O-])c1            NO

---

# maps each entry to its inhibition
system: Sialate O-acetylesterase (Homo sapiens)
method summary: blockers of sialate O-acetylesterase activity-probe labeling – biochemical, fluorescence polarization, FP-Rh probe, 1536-well HTS, primary screen (AID 1053197);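 also: 0% = plate median of compound wells and 100% = probe without SIAE protein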
run parameters: SIAE FP-Rh probe binding, at 9.66 µM, hits give high values
Hit rate of the full screen: of about 370,000 compounds, about 2,600 (0.7%) were called active. The entries come from a sample that favours actives as a whole.
measured attribute: inhibition (%)

> print(dat)
                                    compound                                   system  unit.of.measure  reading
 1  O=S1(=O)c2c(NCc3ccco3)cccc2Oc2ccccc2CN1Cc1cn(Cc2cccc(C(F)(F)F)c2)nn1  Sialate O-acetylesterase (Homo sapiens)                %     -2.9
 2  COc1ccc(-c2cc(C(=O)NC(C(=O)O)C(C)C)c(C)o2)cc1OC (stereo unspecified)  Sialate O-acetylesterase (Homo sapiens)                %    -1.04
 3  O=C(OCC#CCSc1nnc(-c2ccco2)o1)c1ccc(F)cc1  Sialate O-acetylesterase (Homo sapiens)                %    -3.86
 4  CNC(=S)NNC(=O)c1oc2nc(-c3ccccc3)cc(-c3ccco3)c2c1N  Sialate O-acetylesterase (Homo sapiens)                %     17.2
 5  CC(=O)Nc1ccc(OC[C@@H](O)CN2CCC(C(O)(c3ccccc3)c3ccccc3)CC2)cc1  Sialate O-acetylesterase (Homo sapiens)                %    -6.43
 6  COC(=O)[C@]12C[C@H](CC(=O)N3CCOCC3)C(=O)N(Cc3ccc(Cl)cc3Cl)C1=C[C@H](C(C)C)O[C@@H]2C1CC1  Sialate O-acetylesterase (Homo sapiens)                %     7.42
 7        Cc1cc(C(=O)NN=C/C=C/c2ccco2)n[nH]1  Sialate O-acetylesterase (Homo sapiens)                %      3.3
 8  O=C(Nc1cccc(Cc2ccccc2)c1)Nc1ccc2nc([C@@H]3O[C@H](CO)[C@@H](O)[C@H](O)[C@H]3O)[nH]c2c1  Sialate O-acetylesterase (Homo sapiens)                %       21
 9  CC(=O)NS(=O)(=O)c1ccc(N/C(N)=N/c2nc(C)cc(C)n2)cc1  Sialate O-acetylesterase (Homo sapiens)                %     -5.5
10  NNC(=O)c1oc2nc(-c3ccccc3)cc(-c3ccco3)c2c1N  Sialate O-acetylesterase (Homo sapiens)                %     19.6
11            O=C(NC1CCC1)c1ccc(C#CC2CC2)cn1  Sialate O-acetylesterase (Homo sapiens)                %     3.02
12                COc1ccc2[nH]c(=S)cc(C)c2c1  Sialate O-acetylesterase (Homo sapiens)                %     23.9
13  COc1ccc(NC(=O)/C(N=Nc2cccc(S(=O)(=O)Nc3ccc(SC(F)F)cc3)c2)=C(\C)O)cc1  Sialate O-acetylesterase (Homo sapiens)                %     17.2
14              COCCOC(=O)c1sc(=S)n(CCOC)c1N  Sialate O-acetylesterase (Homo sapiens)                %     35.8
15  CC(C)N1CCCCC(NC(=O)c2ccc3ccccc3c2)C1=O (stereo unspecified)  Sialate O-acetylesterase (Homo sapiens)                %    -1.26
16  COc1ccc(C(=O)OCCN(C)C2CN(Cc3cn(Cc4cccc(C)c4)nn3)S(=O)(=O)C2)cc1OC (stereo unspecified)  Sialate O-acetylesterase (Homo sapiens)                %    -4.69
17  S=C(Nc1ccc(Br)cc1Cl)NC1CCN(Cc2ccccc2)CC1  Sialate O-acetylesterase (Homo sapiens)                %     5.25
18                          COc1ccc(N)c(C)c1  Sialate O-acetylesterase (Homo sapiens)                %     15.1
19  COc1ccc(C(=O)NNc2cc(C)nc(NNC(=O)c3ccc(OC)cc3)n2)cc1  Sialate O-acetylesterase (Homo sapiens)                %    -3.36
20  Cc1ccc(OCc2nnc(SC/C=C/c3ccccc3)n2Cc2ccco2)cc1  Sialate O-acetylesterase (Homo sapiens)                %     4.07
21  Cc1cc(NS(=O)(=O)c2ccc(NC(=O)CSc3nnc(SCc4ccc(F)cc4)s3)cc2)nc(C)n1  Sialate O-acetylesterase (Homo sapiens)                %    -8.85

---

Readings of inhibition for the listed compounds
system: Sialate O-acetylesterase (Homo sapiens)
method summary: blockers of sialate O-acetylesterase activity-probe labeling – biochemical, fluorescence polarization, FP-Rh probe, 1536-well HTS, primary screen (AID 1053197);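 also: 0% = plate median of compound wells and 100% = probe without SIAE protein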
run parameters: SIAE FP-Rh probe binding, at 9.66 µM, hits give high values
In all, about 370,000 compounds went through this assay and about 2,600 (0.7%) were called active. What follows is part of a selection rich in actives, with near analogues and random picks from the rest.
measured attribute: inhibition (%)

> print(dat)
                                    compound  reading
 1         COc1ccc(CCNc2ncnc3nc[nH]c23)cc1OC     32.2
 2  Cc1[nH]c2ccccc2c1C(=O)CN1CC(C)CC(C)C1 (stereo unspecified)    -1.61
 3  CC(=O)c1cc(-c2ccc3ccccc3c2)c(=O)n2c1CCC2    -1.29
 4   Cc1cccc(C(=O)N2CCC(c3nc4ccccc4s3)CC2)c1      1.7
 5  COC(=O)c1cccc(Cn2ccc3ccc(-c4ccc5ccn(C(=O)C6CCCCC6)c5c4)cc32)c1    -4.45
 6  Cc1cc2ccccn2c1C(=O)c1cccc(S(=O)(=O)N2CCOCC2)c1    -6.52
 7  CC(=O)N1CCc2cc(S(=O)(=O)NCCC(=O)N3CCCC3)ccc21    -1.37
 8            Cc1cc2ccccn2c1C(=O)c1cccc(F)c1     18.5
 9  O=C(OC12CCCN(C1)/C(=C/c1cccnc1)C2)C1CCCC1 (stereo unspecified)     9.64
10  CC(CCN1CCC(C(O)(c2ccccc2)c2ccccc2)CC1)Oc1ccc(C(F)(F)F)cc1 (stereo unspecified)     8.83
11             Cc1nc2ccc(C(=O)N3CCSCC3)cc2s1     80.7

---

system: Sialate O-acetylesterase (Homo sapiens)
method summary: blockers of sialate O-acetylesterase activity-probe labeling – biochemical, fluorescence polarization, FP-Rh probe, 1536-well HTS, primary screen (AID 1053197);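 also: 0% = plate median of compound wells and 100% = probe without SIAE protein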
run parameters: SIAE FP-Rh probe binding, at 9.66 µM, hits give high values
Out of some 370,000 compounds screened, about 2,600 (0.7%) were called active. Only a selection was taken, and actives are over-represented in it overall.
Recorded measurements of inhibition, one per entry
measured attribute: inhibition (%)

> print(dat)
                                    compound  reading
 1  CCOC(=O)C1CCN(C(=O)C(C)(C)NC(=O)Nc2ccccc2Cl)CC1    -1.25
 2  C#CCNC(=O)C[C@H]1C[C@@]2(C(=O)OC)C(=C[C@H](C(C)C)O[C@@H]2C2CC2)N(Cc2ccco2)C1=O     4.68
 3  O=C(CSc1nc2ccccc2n1Cc1ccccc1)NNC(=S)Nc1ccccc1     2.33
 4  C/C(=N\NC(=O)CNc1cccc2ccccc12)c1ccc(Br)s1     -5.3
 5  Cc1cc(C(=O)NNC(=O)c2cccc(S(=O)(=O)N3CCOCC3)c2)c2ccccc2n1     0.67
 6  O=C(NNc1c2ccccc2nc2ccccc12)c1cc2ccccc2cc1O     49.5
 7  S=C(NCCCc1cnc[nH]1)NCCCN(Cc1ccc(Cl)c(Cl)c1)c1ccc(Br)cn1     38.7
 8  CC(C)C(C#CC1CC1)N(Cc1ccc2c(c1)OCO2)C(N)=NC(=O)/C=C/c1cccc(C(F)(F)F)c1 (stereo not given)    -3.05
 9           COC(=O)c1c(C(=O)OC)c2n(c1C)CCS2    -0.54
10   O=C(Cn1cncn1)N/N=C/c1c2ccccc2cc2ccccc12    -1.87
